- System: Vero E6 ATCC CRL1586 cells
- method notes: Mammalian-cell cytotoxicity, minimal cytotoxic concentration (CellTiter96)
- Assay type: cell-based
property name: MCC mammalian cells Vero E6 ATCC CRL1586 (µg/mL)

• O=C(NC(Cc1ccccc1)C(=O)Nc1cccc2c1CCCC2)c1cccs1 (centres unmarked) = 50
• O=C(NC(Cc1ccc(O)cc1)C(=O)Nc1cccc2c1CCCC2)c1ccccc1 (centres unmarked) = 21
• Cc1ccc(Cl)cc1NC(=O)C(Cc1ccccc1)NC(=O)c1ccccc1Cl (centres unmarked) = 9.2
• O=C(NC(Cc1ccc(O)cc1)C(=O)Nc1cccc2cnccc12)c1ccccc1 (centres unmarked) = 42
• COc1ncccc1NC(=O)C(Cc1ccccc1)NC(=O)c1ccccc1 (centres unmarked) = 38
• O=C(NC(Cc1ccc(O)cc1)C(=O)Nc1ccccc1N1CCOCC1)c1ccccc1F (centres unmarked) = 77
• Cc1ccccc1NC(=O)C(Cc1ccccc1)NC(=O)c1cccc2[nH]ccc12 (centres unmarked) = 36
• Cc1ccc(F)cc1NC(=O)C(Cc1ccc(O)cc1)NC(=O)c1ccccc1F (centres unmarked) = 77

---

- Test system: Vero E6 ATCC CRL1586 cells
- method notes: Mammalian-cell cytotoxicity, minimal cytotoxic concentration (CellTiter96)
- Assay type: cell-based
Measured MCC mammalian cells Vero E6 ATCC CRL1586 accompanies every entry in the list below.
property name: MCC mammalian cells Vero E6 ATCC CRL1586

* Cc1ccccc1NC(=O)C(Cc1ccc(O)cc1)NC(=O)c1ccccc1C (stereo not drawn) | >100 µg/mL
* O=C(NC(Cc1ccc(O)cc1)C(=O)Nc1ccccc1N1CCOCC1)c1ccccc1 (stereo not drawn) | >100 µg/mL
* O=C(NC(Cc1ccc(O)cc1)C(=O)Nc1cccc2c1CCC2)c1ccccc1 (stereo not drawn) | >40 µg/mL
